- Target System: Aldo-keto reductase family 1 member B1 (Homo sapiens, UniProt P15121)
- Method Notes: Uncompetitive inhibition of human recombinant aldose reductase expressed in Escherichia coli using DL-glyceraldehyde as substrate by double reciprocal plot analysis
Endpoint: pKi
Scale: pKi equals -log10([C]), with [C] in mol/L.

Problem: Requested field: pKi. Item: Cc1cc(O)c2c(c1)C(=O)c1cc(O)cc(O)c1C2=O
Solution: 5.68

---

- Target System: UniProt P15121
- Method Notes: Inhibition of human recombinant aldose reductase expressed in Escherichia coli using DL-glyceraldehyde as substrate in presence of NADPH by spectrophotometric analysis
Endpoint: pIC50
Scale: pIC50 equals -log10([C]), with [C] in mol/L.

Problem: Requested field: pIC50. Item: Cc1cc(O)c2c(c1)C(=O)c1cc(O)cc(O)c1C2=O
Solution: 5.57
